system: DU-145 prostate; experiment: NCI tumour cell line growth inhibition, 48 h

{"columns": ["molecule", "GI50"],
 "data": [
  ["O=C1CC(c2ccccc2)Cc2nc3ccc(Br)cc3cc21 (stereo not drawn)", "0.209 µM"],
  ["N#CC1=C(N)NC(=S)NC12Nc1ccccc1S2 (stereo not drawn)", "17.2 µM"],
  ["Cn1cc(C2=C(c3cn(-c4ccccc4)c4ccccc34)C(=O)NC2=O)c2ccccc21", "> 25 µM"],
  ["COc1ccc(/C=C2\\COc3ccc(O)c(O)c3C2=O)c(OC)c1OC", "3.64 µM"],
  ["CN(C)CC(=O)Nc1ccc2ncnc(Nc3ccc(Oc4cccc(C(F)(F)F)c4)c(Cl)c3)c2c1", "2.13 µM"],
  ["Cn1cc(-c2nc(-c3c[nH]c4ncccc34)cs2)c2ccccc21", "62.8 µM"],
  ["C=C1C(=O)O[C@H]2[C@H](OC(C)=O)[C@@H](C)CCCC3(C)OC3CCC3(CO3)[C@H](O)C[C@@H]12 (stereo partly drawn)", "3.92 µM"],
  ["COc1cc(-c2nc3sc(C)cn3c2/C=C2\\C(=O)Nc3ccccc32)c(Br)c(OC)c1OC", "28.5 µM"]
]}

----------
tested on: OVCAR-3 ovarian; test: NCI tumour cell line growth inhibition, 48 h
reported endpoint: TGI

{"columns": ["compound", "value reported"],
 "data": [
  ["C/C=C/C=C\\C=C/C(O)C(C)C(CCC(C)C1OC(=O)C=CC1C)OP(=O)(O)O (stereo not drawn)", "0.393 µM"],
  ["CCOC(=O)C1(C#N)C(=O)c2cc[n+](CC[n+]3ccc4c(c3)C(=O)C(C#N)(C(=O)OCC)C4=O)cc2C1=O (stereo not drawn)", "> 100 µM"],
  ["O=c1oc2ccccc2c(O)c1C(c1cnc2ccccc2c1)c1c(O)c2ccccc2oc1=O", "> 100 µM"]
]}

----------
Recorded TGI, one value per entry.
tested on: 786-0 renal; assay: NCI tumour cell line growth inhibition, 48 h

{"columns": ["compound", "TGI"],
 "data": [
  ["COc1ccc(/C=C2\\COc3ccc(O)c(O)c3C2=O)c(OC)c1OC", "10.7 µM"],
  ["O=C(Cc1ccccc1)NN1C(=O)/C(=C\\c2cccc([N+](=O)[O-])c2)SC1=Nc1ccccc1", "> 100 µM"],
  ["C=C1C(=O)O[C@@H]2/C=C(\\C)CC/C=C(\\C)CC[C@@]12O", "2.71 µM"],
  ["O=C1OC(C2Cc3ccc4c(c3C2=O)CCC4)c2ccccc21 (centres undefined)", "> 100 µM"],
  ["O=C(NNC1=NCCCN1)c1ccco1", "> 100 µM"],
  ["CC(C)(Oc1ccc(Cl)cc1)C(=O)N(C(=O)N1CCCCC1)c1ccccc1", "27.6 µM"],
  ["COC(=O)[C@@]1(C)C(=O)CC[C@@H]1C=O", "> 100 µM"],
  ["O=c1cc(NNCc2ccccc2)[nH]c(=O)[nH]1", "> 100 µM"],
  ["Oc1c(Cl)cc(Cl)cc1/C=N/Nc1nnc(N/N=C/c2cc(Cl)cc(Cl)c2O)c2ccccc12", "> 100 µM"],
  ["COC(=O)c1ccc(/C=C(\\c2ccc([N+](=O)[O-])o2)S(=O)(=O)c2ccc(NC(C)=O)cc2)o1", "14.9 µM"],
  ["CN(CC(=O)O)Cc1c(O)c(Cl)cc(Cl)c1Cl", "> 100 µM"],
  ["O=C(OCCCl)C1OC(n2cc(F)c(=O)[nH]c2=O)CC1O (centres undefined)", "> 100 µM"],
  ["CCCC1CC(=O)NC(=O)C1C(=O)OC(C)(C)C (centres undefined)", "> 100 µM"],
  ["C=CCC1(Sc2ccccn2)Sc2ccc3ccccc3c2-c2c(ccc3ccccc23)S1", "> 100 µM"]
]}

Data credit: PubChem BioAssay (NCI)
